- Measured target: huPPARγ (Homo sapiens, UniProt P37231)
- Sequence (P37231 1-505): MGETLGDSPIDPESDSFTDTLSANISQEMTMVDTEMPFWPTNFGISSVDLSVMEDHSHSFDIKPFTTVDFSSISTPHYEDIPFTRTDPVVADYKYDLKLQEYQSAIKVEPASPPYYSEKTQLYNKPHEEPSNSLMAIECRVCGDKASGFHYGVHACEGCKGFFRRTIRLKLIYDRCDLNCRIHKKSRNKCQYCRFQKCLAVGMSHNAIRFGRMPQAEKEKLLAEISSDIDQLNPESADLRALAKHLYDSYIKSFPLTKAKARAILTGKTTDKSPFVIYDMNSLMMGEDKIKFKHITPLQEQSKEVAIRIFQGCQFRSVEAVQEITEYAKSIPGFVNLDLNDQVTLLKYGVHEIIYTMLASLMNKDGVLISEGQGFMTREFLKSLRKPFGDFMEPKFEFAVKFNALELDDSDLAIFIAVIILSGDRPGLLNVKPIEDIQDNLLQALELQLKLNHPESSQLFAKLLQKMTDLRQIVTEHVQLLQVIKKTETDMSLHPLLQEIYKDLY
- Sequence (P19793 1-462 partner): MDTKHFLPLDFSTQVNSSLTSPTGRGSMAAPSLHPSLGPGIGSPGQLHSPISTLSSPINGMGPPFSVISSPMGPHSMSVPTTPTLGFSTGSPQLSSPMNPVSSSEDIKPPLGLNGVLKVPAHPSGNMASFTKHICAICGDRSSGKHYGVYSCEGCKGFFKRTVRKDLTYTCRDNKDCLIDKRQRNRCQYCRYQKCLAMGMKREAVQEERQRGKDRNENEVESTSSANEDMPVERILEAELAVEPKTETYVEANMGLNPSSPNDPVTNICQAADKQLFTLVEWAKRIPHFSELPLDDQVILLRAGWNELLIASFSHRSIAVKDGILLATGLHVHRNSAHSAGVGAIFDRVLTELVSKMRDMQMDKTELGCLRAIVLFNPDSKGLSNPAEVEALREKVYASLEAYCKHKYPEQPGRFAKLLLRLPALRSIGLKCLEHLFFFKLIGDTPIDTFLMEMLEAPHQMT
- Procedure text: Cotransfection assay in CV-1 cells, huPPARγ
- Assay type: cell-based
- Design: expressed in transfected cells; host or cells: CV-1 cells
- Condition: AOX PPRE luciferase reporter, relative to agonist reference molecule, read-out: huPPARγ CTF Efficacy
Endpoint name: Emax (%)
Only the number, expressed in %, is required.

Some entries whose results are on file:
Recorded Emax of Cc1sc(-c2cccc(-c3ccccc3)c2)nc1CCOc1ccc(OC(C)(C)C(=O)O)cc1 , please.
142

Recorded Emax of Cc1oc(-c2ccc(-c3ccccc3)cc2)nc1CCOc1ccc(OC(C)(C)C(=O)O)c(CCc2ccccc2)c1 , please.
63

Recorded Emax of Cc1oc(-c2ccc(-c3c(F)cccc3F)cc2)nc1CCOc1ccc(OC(C)(C)C(=O)O)cc1 , please.
84

Here is the next item to consider.
Recorded Emax of Cc1oc(-c2cccc(-c3ccccc3)c2)nc1CCOc1ccc(OC(C)(C)C(=O)O)c(CC2CCCCC2)c1 , please.
73
